Tested on: HCC-2998 colon
Assay: NCI tumour cell line growth inhibition, 48 h
Would you mind telling me the reported log10 TGI of each entry?
Would you kindly interpret these values as log10 of TGI expressed in µM?

// recorded log10 TGI for NC(Cc1ccc(OCc2ccccc2)cc1)C(=O)NC(Cc1ccccc1)C(=O)Oc1c(Cl)c(Cl)c(Cl)c(Cl)c1Cl (stereo unspecified) : 1.53

// recorded log10 TGI for O=c1c2cc(C(F)(F)F)ccc2sc2c(NCCCNCCO)nc3ccccc3c12 : 0.52

// recorded log10 TGI for O=S(=O)(O)O : 3.33

// recorded log10 TGI for COc1ccc(C#Cn2nnc3ccccc32)cc1 : 1.91

// recorded log10 TGI for C=C1CC(CC)(CCN2C(=O)c3ccccc3C2=O)OC1=O (stereo unspecified) : 1.51

// recorded log10 TGI for O=C(O)CSc1ccccc1C(=O)O : 1.67

// recorded log10 TGI for OCCCCC#Cc1ccccc1C#Cc1ccc(O)cc1 : 1.48

// recorded log10 TGI for CN1CCN(Cc2c[nH]c3c2C(=O)c2c(c(O)c4ccccc4c2O)C3=O)CC1 : 1.37

// recorded log10 TGI for COc1ccc(-c2c(C)c(C(=O)O)nc(-c3ccc4c(O)c(OC)c5c(c4n3)=NC(C)(C)N=5)c2N)c(O)c1OC : 1.55
